Ref: the NIST ThermoML archive (doi:10.1021/je5009679)

Here, each record is paired with measured mass density data.
test parameters: 373.15 K; 101.33 kPa; Liquid; Vibrating tube method
Numbers after ± are expanded uncertainties.
measure: mass density

>>> print(df.to_string())
                                   compound       measure     measured_result
0  CCn1cc[n+](C)c1.CO[PH](=O)[O-] [1-ethyl-3-methylimidazolium methyl phosphonate]  mass density  1147.6 ± 1.1 kg/m3
1  CC(=O)[O-].CCCCn1cc[n+](C)c1 [1-butyl-3-methylimidazolium acetate]  mass density    1006.1 ± 1 kg/m3
2  CCOP(=O)([O-])OCC.CCn1cc[n+](C)c1 [1-ethyl-3-methylimidazolium diethyl phosphate]  mass density    1094.9 ± 1 kg/m3
3  CCCC[n+]1ccn(C)c1.O=S(=O)([N-]S(=O)(=O)C(F)(F)F)C(F)(F)F  mass density  1366.7 ± 1.3 kg/m3

====

test parameters: 353.15 K; 101.33 kPa; Liquid; Vibrating tube method
Examples of compounds with documented mass density follow.
measure: mass density (kg/m3)

>>> print(df.to_string())
                                   compound       measure  value_unit  measured_result
0  CCCC[n+]1ccn(C)c1.O=S(=O)([N-]S(=O)(=O)C(F)(F)F)C(F)(F)F  mass density       kg/m3           1384.8
1  CC(=O)[O-].CCCCn1cc[n+](C)c1 [1-butyl-3-methylimidazolium acetate]  mass density       kg/m3           1017.9
2  CCn1cc[n+](C)c1.CO[PH](=O)[O-] [1-ethyl-3-methylimidazolium methyl phosphonate]  mass density       kg/m3           1159.9
3  CCOP(=O)([O-])OCC.CCn1cc[n+](C)c1 [1-ethyl-3-methylimidazolium diethyl phosphate]  mass density       kg/m3             1108

====

test parameters: 343.15 K; 101.33 kPa; Liquid; Concentric cylinders viscometry
measure: viscosity (mPa·s)

                                   molecule  value_unit  measured_result
0  CCOP(=O)([O-])OCC.CCn1cc[n+](C)c1 [1-ethyl-3-methylimidazolium diethyl phosphate]       mPa·s            44.92
1  CCn1cc[n+](C)c1.CO[PH](=O)[O-] [1-ethyl-3-methylimidazolium methyl phosphonate]       mPa·s            19.32
2  CCCC[n+]1ccn(C)c1.O=S(=O)([N-]S(=O)(=O)C(F)(F)F)C(F)(F)F       mPa·s               12
3  CC(=O)[O-].CCCCn1cc[n+](C)c1 [1-butyl-3-methylimidazolium acetate]       mPa·s            33.65

====

test parameters: 293.15 K; 101.33 kPa; Liquid; Vibrating tube method
Parameter: mass density. Scope: all listed entries.
measure: mass density (kg/m3)

>>> df
                                   compound       measure  measured_result
0  CC(=O)[O-].CCCCn1cc[n+](C)c1 [1-butyl-3-methylimidazolium acetate]  mass density           1053.8
1  CCCC[n+]1ccn(C)c1.O=S(=O)([N-]S(=O)(=O)C(F)(F)F)C(F)(F)F  mass density           1440.9
2  CCn1cc[n+](C)c1.CO[PH](=O)[O-] [1-ethyl-3-methylimidazolium methyl phosphonate]  mass density           1198.3
3  CCOP(=O)([O-])OCC.CCn1cc[n+](C)c1 [1-ethyl-3-methylimidazolium diethyl phosphate]  mass density           1148.2

====

test parameters: 373.15 K; 101.33 kPa; Liquid; Concentric cylinders viscometry
measure: viscosity (mPa·s)

                                   compound  value_unit  measured_result
0  CCOP(=O)([O-])OCC.CCn1cc[n+](C)c1 [1-ethyl-3-methylimidazolium diethyl phosphate]       mPa·s            17.92
1  CCn1cc[n+](C)c1.CO[PH](=O)[O-] [1-ethyl-3-methylimidazolium methyl phosphonate]       mPa·s            9.289
2  CC(=O)[O-].CCCCn1cc[n+](C)c1 [1-butyl-3-methylimidazolium acetate]       mPa·s            12.93
3  CCCC[n+]1ccn(C)c1.O=S(=O)([N-]S(=O)(=O)C(F)(F)F)C(F)(F)F       mPa·s            6.469

====

test parameters: 333.15 K; 101.33 kPa; Liquid; Concentric cylinders viscometry
This section presents compounds with their documented viscosity values.
measure: viscosity (mPa·s)

>>> print(df.to_string())
                                   compound  measured_result
0  CCn1cc[n+](C)c1.CO[PH](=O)[O-] [1-ethyl-3-methylimidazolium methyl phosphonate]             26.3
1  CCOP(=O)([O-])OCC.CCn1cc[n+](C)c1 [1-ethyl-3-methylimidazolium diethyl phosphate]            66.37
2  CCCC[n+]1ccn(C)c1.O=S(=O)([N-]S(=O)(=O)C(F)(F)F)C(F)(F)F            15.47
3  CC(=O)[O-].CCCCn1cc[n+](C)c1 [1-butyl-3-methylimidazolium acetate]            51.11

====

Quick reference for mass density among some compounds
test parameters: 323.15 K; 101.33 kPa; Liquid; Vibrating tube method
measure: mass density (kg/m3)

>>> df
                                   compound  value_unit  measured_result
0  CCn1cc[n+](C)c1.CO[PH](=O)[O-] [1-ethyl-3-methylimidazolium methyl phosphonate]       kg/m3           1178.8
1  CCOP(=O)([O-])OCC.CCn1cc[n+](C)c1 [1-ethyl-3-methylimidazolium diethyl phosphate]       kg/m3           1127.8
2  CC(=O)[O-].CCCCn1cc[n+](C)c1 [1-butyl-3-methylimidazolium acetate]       kg/m3           1035.4
3  CCCC[n+]1ccn(C)c1.O=S(=O)([N-]S(=O)(=O)C(F)(F)F)C(F)(F)F       kg/m3           1412.6

====

test parameters: 303.15 K; 101.33 kPa; Liquid; Concentric cylinders viscometry
measure: viscosity (mPa·s)

>>> df
                                   compound  value_unit  measured_result
0  CC(=O)[O-].CCCCn1cc[n+](C)c1 [1-butyl-3-methylimidazolium acetate]       mPa·s            274.1
1  CCCC[n+]1ccn(C)c1.O=S(=O)([N-]S(=O)(=O)C(F)(F)F)C(F)(F)F       mPa·s            41.26
2  CCOP(=O)([O-])OCC.CCn1cc[n+](C)c1 [1-ethyl-3-methylimidazolium diethyl phosphate]       mPa·s            317.3
3  CCn1cc[n+](C)c1.CO[PH](=O)[O-] [1-ethyl-3-methylimidazolium methyl phosphonate]       mPa·s             89.9
